# protocol.description: modulators of glucocorticoid suppression of NF-kB, cell-based, luciferase, IL-1B stimulus, dexamethasone (AID 624486);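 note: 100% = mean signal of vehicle control wells on the plate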
# settings: NF-kB luciferase reporter, IL-1B + dexamethasone, luminescence; actives lie on both sides, concentration not given here
measure.name: percent of negative control (+Dex) (%)
The figure you give is taken to be in %; do not add the unit.

compound	measure.name	test.value
CC(=Nc1ccc(S(N)(=O)=O)cc1)c1c(O)[nH]c2ccccc12	percent of negative control (+Dex)	176
O=C1N=c2ccc(N=Cc3c(O)[nH]c4ccccc34)cc2=N1	percent of negative control (+Dex)	86
Oc1[nH]c2ccccc2c1C=Nc1ccc(-n2cncn2)cc1	percent of negative control (+Dex)	142
Nc1nccc(-c2c(-c3ccc(F)cc3)ncn2C2CCC(O)CC2)n1 (stereo not given)	percent of negative control (+Dex)	110
CCn1c(-c2nonc2N)nc2ccc(F)cc21	percent of negative control (+Dex)	82.5
CCCN(CCS(C)(=O)=O)Cc1ccc(-c2ccc3ncnc(Nc4ccc(OCc5cccc(F)c5)c(Cl)c4)c3c2)o1	percent of negative control (+Dex)	74.5
Cn1cc(C2=C(c3cn(C)c4cc(N)ccc34)C(=O)NC2=O)c2ccccc21	percent of negative control (+Dex)	96
Cn1c(=O)c(Oc2ccc(F)cc2F)cc2cnc(NCCS(C)(=O)=O)nc21	percent of negative control (+Dex)	101
CN1CCC(n2cnc(-c3ccc(F)cc3)c2-c2ccnc(NCCO)n2)CC1	percent of negative control (+Dex)	102

Now examine the next entry.
[Q] Name the recorded percent of negative control (+Dex) for CCn1c(-c2nonc2N)nc2c(C#CCN)ncc(OCCCN)c21 .
[A] 85

====

# protocol.description: inhibition of endothelial tube formation, primary screen, imaging, VEGF stimulated, CD31 staining, tube area, NPC library (AID 1117340)
# settings: VEGF-stimulated ADSC/ECFC co-culture, at 10 µM, stronger effect = higher value
Field: class. Source value: tube area decrease. Ranges: interval 1 = under -10%, interval 2 = from -10% up to 10%, interval 3 = 10% and over

compound	label.class
CN(C)[C@@H]1C(=O)C(C(N)=O)=C(O)[C@@]2(O)C(=O)C3=C(O)c4c(O)cccc4C[C@H]3C[C@@H]12	interval 2
CCCCCCCCCCCCCCCC[N+](C)(C)CC	interval 3
O=C(O)Cc1ccc2c(c1)C(=O)c1ccccc1CO2	interval 1
COC(=O)C(CN)c1c[nH]c2ccc(OC)cc12 (configuration not stated)	interval 2
O=C(O)c1cc(O)c2c(c1)[O][Bi][O]2	interval 3

[Q] Which bin, given its tube area decrease, does NC(=O)N1c2ccccc2C=Cc2ccccc21 occupy?
[A] interval 2

[Q] Exam item: assign O=C(O)c1cn(C2CC2)c2cc(Cl)c(F)cc2c1=O to the correct category.
[A] interval 1

[Q] Could you place Cc1ccccc1N=Nc1ccc(N=Nc2c(O)ccc3ccccc23)c(C)c1 in its proper category? Many thanks.
[A] interval 3

[Q] Entry CCn1cc(C(=O)O)c(=O)c2cc(F)c(N3CCN(C)CC3)cc21 belongs to which category?
[A] interval 3

====

# protocol.description: kinase inhibitors against Plasmodium liver-stage infection, cell-based, known kinase inhibitor set, luminescence, hepatoma host viability (AID 624392);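 note: infected cells incubated roughly two days before readout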
# settings: Plasmodium liver stage in hepatoma cells, luciferase luminescence, concentration not given here; stronger effect = lower value
measure.name: parasite % of control (%)
Answer format: numeric, % implied, no suffix.

molecule	measure.name	test.value
CC(C)=Cc1cccc2[nH]c(O)c(N=Nc3ccc(S(N)(=O)=O)cc3)c12	parasite % of control	247
COc1cc2ncn(-c3cc(OCc4ccccc4C(F)(F)F)c(C(=O)N(C)C)s3)c2cc1OC	parasite % of control	116
Nc1ncnc2occ(-c3ccc(NC(=O)Nc4cc(C(F)(F)F)cc(C(F)(F)F)c4)cc3)c12	parasite % of control	11.2
Cn1cc(C2=C(c3c4n(c5ccccc35)CC(CN)C4)C(=O)NC2=O)c2ccccc21 (stereo not given)	parasite % of control	48.9
Cc1ccc(C(=O)NC(C)C)cc1-c1ccc(C(=O)NCC2CC2)cc1	parasite % of control	124
Cc1ccc(C(=O)NC2CC2)cc1-c1ccc2[nH]ncc2c1	parasite % of control	126
c1ccc(Oc2ccc(Nc3ncc(-c4ccccc4)o3)cc2)cc1	parasite % of control	102
CC(C)(CO)CNC(=O)c1ccc2[nH]c(O)c(N=Nc3ccc(S(N)(=O)=O)cc3)c2c1	parasite % of control	103
Cn1cc(C2=C(c3cn(CCO)c4ccccc34)C(=O)NC2=O)c2ccccc21	parasite % of control	54.6
Cc1cc(Cl)cc2c(N=Nc3ccc(S(N)(=O)=O)cc3)c(O)[nH]c12	parasite % of control	139

Moving on to another molecule below.
[Q] Look at this molecule and give its reported parasite % of control. COC(=O)Nc1nc2ccc(Oc3ccc(NC(=O)Nc4cccc(Cl)c4)cc3)cc2[nH]1
[A] 298
